# pIC50 per entry
# TARGET_OR_TEST_SYSTEM: Broad substrate specificity ATP-binding cassette transporter ABCG2 (Homo sapiens)
# Sequence (Q9UNQ0 whole entry): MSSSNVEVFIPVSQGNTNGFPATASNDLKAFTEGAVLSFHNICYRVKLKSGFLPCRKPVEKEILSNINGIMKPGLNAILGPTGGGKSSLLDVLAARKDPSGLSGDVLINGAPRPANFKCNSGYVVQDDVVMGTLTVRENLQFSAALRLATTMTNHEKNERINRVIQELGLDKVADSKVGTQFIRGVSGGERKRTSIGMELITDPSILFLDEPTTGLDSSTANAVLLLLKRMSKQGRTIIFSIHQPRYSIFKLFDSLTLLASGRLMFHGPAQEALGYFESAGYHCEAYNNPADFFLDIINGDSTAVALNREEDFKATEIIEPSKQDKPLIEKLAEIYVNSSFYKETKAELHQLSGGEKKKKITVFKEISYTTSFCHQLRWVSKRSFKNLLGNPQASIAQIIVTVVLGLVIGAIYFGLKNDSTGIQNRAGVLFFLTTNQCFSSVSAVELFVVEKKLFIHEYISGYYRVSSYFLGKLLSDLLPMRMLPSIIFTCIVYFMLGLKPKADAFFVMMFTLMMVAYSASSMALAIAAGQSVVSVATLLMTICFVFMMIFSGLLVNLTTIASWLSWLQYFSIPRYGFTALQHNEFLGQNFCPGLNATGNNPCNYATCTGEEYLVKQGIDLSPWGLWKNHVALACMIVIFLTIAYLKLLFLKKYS
# EXPERIMENTAL_PROTOCOL: Inhibition of human BCRP expressed in MDCK2 cells assessed as Hoechst 33342 accumulation treated 30 mins before Hoechst 33342 addition measured up to 120 mins by fluorescence assay
# Assay type: cell-based, MDCK-II
Please express pIC50 as -log10 of the molar concentration.

Use these answered entries as a reference point.
[
  {
    "CHEMICAL_SMILES": "COc1ccc(-c2nc(Nc3cccc(Br)c3)c3ccccc3n2)cc1OC",
    "TARGET_OR_TEST_SYSTEM": "Broad substrate specificity ATP-binding cassette transporter ABCG2 (Homo sapiens)",
    "ENDPOINT_RESULT": 6.54
  },
  {
    "CHEMICAL_SMILES": "COc1ccc(Nc2ncnc3ccccc23)cc1OC",
    "TARGET_OR_TEST_SYSTEM": "Broad substrate specificity ATP-binding cassette transporter ABCG2 (Homo sapiens)",
    "ENDPOINT_RESULT": 5.32
  },
  {
    "CHEMICAL_SMILES": "COc1ccc(Nc2ncnc3cc(OC)c(OC)cc23)cc1OC",
    "TARGET_OR_TEST_SYSTEM": "Broad substrate specificity ATP-binding cassette transporter ABCG2 (Homo sapiens)",
    "ENDPOINT_RESULT": 5.13
  },
  {
    "CHEMICAL_SMILES": "COc1cc2nc(Nc3cccc(C#N)c3)nc(Nc3cccc(C#N)c3)c2cc1OC",
    "TARGET_OR_TEST_SYSTEM": "Broad substrate specificity ATP-binding cassette transporter ABCG2 (Homo sapiens)",
    "ENDPOINT_RESULT": 6.32
  },
  {
    "CHEMICAL_SMILES": "COc1ccc(-c2nc(Nc3ccc(O)cc3)c3ccccc3n2)cc1OC",
    "TARGET_OR_TEST_SYSTEM": "Broad substrate specificity ATP-binding cassette transporter ABCG2 (Homo sapiens)",
    "ENDPOINT_RESULT": 6.33
  },
  {
    "CHEMICAL_SMILES": "COc1cc2nc(Nc3cccc(Br)c3)nc(Nc3cccc(Br)c3)c2cc1OC",
    "TARGET_OR_TEST_SYSTEM": "Broad substrate specificity ATP-binding cassette transporter ABCG2 (Homo sapiens)",
    "ENDPOINT_RESULT": 6.17
  },
  {
    "CHEMICAL_SMILES": "COc1ccc(-c2nc(Nc3cccc(C(F)(F)F)c3)c3ccccc3n2)cc1OC",
    "TARGET_OR_TEST_SYSTEM": "Broad substrate specificity ATP-binding cassette transporter ABCG2 (Homo sapiens)",
    "ENDPOINT_RESULT": 6.52
  },
  {
    "CHEMICAL_SMILES": "COc1ccc(-c2nc(Nc3cccc(O)c3)c3ccccc3n2)cc1OC",
    "TARGET_OR_TEST_SYSTEM": "Broad substrate specificity ATP-binding cassette transporter ABCG2 (Homo sapiens)",
    "ENDPOINT_RESULT": 6.85
  }
]

Record COc1ccc(Nc2nc(-c3ccc(OC)c(OC)c3)nc3ccccc23)cc1OC , field pIC50: 6.38

Record COc1ccc(-c2nc(Nc3ccccc3[N+](=O)[O-])c3ccccc3n2)cc1OC , field pIC50: 6.19

Record O=[N+]([O-])c1cccc(Nc2ncnc3ccccc23)c1 , field pIC50: 5.95
